Test system: Candida albicans
experiment description: Antifungal activity against Candida albicans NCIM 3471 after 48 to 72 hrs
Format: functional
reported metric: MIC (µg/mL)

Worked set:
# given smiles, units label, MIC
measured = [
    ("CCCCCCCC(=O)N[C@H](/C=C/C(=O)N[C@@H](CCCCN)C(=O)N[C@H](/C=C/C(=O)N[C@@H](CCCCN)C(N)=O)Cc1ccccc1)Cc1ccccc1", "µg/mL", 3.12),
    ("CCCCCCCC(=O)N[C@H](/C=C/C(=O)N[C@@H](CCCCN)C(=O)N[C@H](/C=C/C(=O)N[C@@H](CCCCN)C(N)=O)Cc1ccc(O)cc1)Cc1ccc(O)cc1", "µg/mL", 12.5),
]

(a) CCCCCCCC(=O)N[C@H](/C=C/C(=O)N[C@@H](CCCCN)C(=O)N[C@H](/C=C/C(=O)N[C@@H](CCCCN)C(N)=O)C(C)C)CC(C)C
(b) CCCCCCCCCCCC(=O)N[C@@H](C)/C=C/C(=O)N[C@@H](CCCCN)C(=O)N[C@@H](C)/C=C/C(=O)N[C@@H](CCCCN)C(N)=O
Parameter check: reported MIC is higher for which label, a or b ? Reply with the label of the item you choose.
a
(a: 25 µg/mL, b: 3.12 µg/mL)

Each recorded value in this set is attributed to ChEMBL document CHEMBL3085676.
